Recorded LD50 at 720 h by entry
assay: Acute toxicity (LD50, Behrens-Karber method); type: in vivo, ICR mice; details: mouse, in vivo, ip, mortality during 30 days
# number then unit; no other words

These recorded examples may help you get a feel for the data.
CCCCO[C@H]1O[C@H](CO)[C@@H](O)[C@H](O)[C@H]1N(CCCC)C(=O)N(CCCl)N=O
465 mg/kg
CCOCCN(C[C@H]1O[C@H](OC2CCCCC2)[C@H](O)[C@@H](O)[C@H]1O)C(=O)N(CCCl)N=O
680 mg/kg
COCC(C)N(C[C@H]1O[C@H](OCC(C)C)[C@H](O)[C@@H](O)[C@H]1O)C(=O)N(CCCl)N=O (stereo partly shown)
680 mg/kg

Turning to the following compound.
Quick check: LD50 at 720 h of COc1ccc(CN(C[C@H]2O[C@H](OC3CCCCC3)[C@H](O)[C@@H](O)[C@H]2O)C(=O)N(CCCl)N=O)cc1 ? 630 mg/kg

====

system: Leukemia L1210; experiment: Activity against Leukemia L1210, intraperitoneal, increase in life span of mice; assay type: in vivo, female mice (BDF1 family); details: Mus musculus, L1210, ip, ip once a day for 5 successive days; daily dosage giving maximum increase of life span; read-out: O.D. (optimum dosage)
PARAMETER: ED (maximum ILS) (mg/kg)
Field: numeric (mg/kg). Do not append units.

CCOCCN(C[C@H]1O[C@H](OC2CCCCC2)[C@H](O)[C@@H](O)[C@H]1O)C(=O)N(CCCl)N=O
200
COCCCO[C@H]1O[C@H](CN(C(=O)N(CCCl)N=O)C2CCCCC2)[C@@H](O)[C@H](O)[C@H]1O
180

Quick check: ED (maximum ILS) of COCC(C)OC1OC(CO)C(O)C(O)C1N(CC1CC1)C(=O)N(CCCl)N=O (stereo not shown) ? 180

Quick check: ED (maximum ILS) of COCCCN(C(=O)N(CCCl)N=O)[C@@H]1[C@@H](O)[C@@H](OCC(C)C)O[C@@H]1CO ? 160

Quick check: ED (maximum ILS) of CCC(C)O[C@H]1O[C@H](CN(CC(C)C)C(=O)N(CCCl)N=O)[C@@H](O)[C@H](O)[C@H]1O (stereo partly shown) ? 170

Quick check: ED (maximum ILS) of C=CCN(C[C@H]1O[C@H](OC2CCCCC2)[C@H](O)[C@@H](O)[C@@H]1O)C(=O)N(CCCl)N=O ? 150

Quick check: ED (maximum ILS) of COc1ccc(CO[C@H]2O[C@H](CN(CC(C)C)C(=O)N(CCCl)N=O)[C@@H](O)[C@H](O)[C@H]2O)cc1 ? 120

====

tested on: Leukemia L1210; experiment: Activity against Leukemia L1210, intraperitoneal, increase in life span of mice; assay type: in vivo, female mice (BDF1 family); settings: ip; O.D./ILS30
PARAMETER: Therapeutic ratio TR
// print number alone

COCCN(C[C@H]1O[C@H](OC(C)COC)[C@H](O)[C@@H](O)[C@@H]1O)C(=O)N(CCCl)N=O (stereo partly shown)
67.3
CCC(C)N(C(=O)N(CCCl)N=O)[C@H]1[C@H](O)[C@H](O)[C@@H](OCc2ccccc2)O[C@@H]1CO (stereo partly shown)
28.2

Quick check: Therapeutic ratio TR of COCCN(C(=O)N(CCCl)N=O)C1C(O)C(CO)OC(OC2CCCCC2)C1O (stereo not shown) ? 63.9

Quick check: Therapeutic ratio TR of CC(C)CO[C@H]1O[C@H](CO)[C@@H](O)[C@H](O)[C@H]1N(Cc1ccccc1)C(=O)N(CCCl)N=O ? 25.6

Quick check: Therapeutic ratio TR of CCCCOC1OC(CO)C(O)C(N(CCCOC)C(=O)N(CCCl)N=O)C1O (stereo not shown) ? 30.4

Quick check: Therapeutic ratio TR of CC(C)CN(C(=O)N(CCCl)N=O)[C@@H]1CO[C@H](OC2CCCCC2)[C@H](O)[C@H]1O ? 46.7

Quick check: Therapeutic ratio TR of COC(C)CN(C(=O)N(CCCl)N=O)C1C(O)C(CO)OC(OC2CCCCC2)C1O (stereo not shown) ? 40.8

Values from patent US4593090A
